experiment: Oral bioavailability of hydrocodone conjugates in rats, LC/MS/MS; conditions: male, Sprague-Dawley, rat, plasma, po, 2 mg/kg

>  <molecule>
COc1ccc2c3c1O[C@H]1C(=O)CC[C@H]4[C@@H](C2)N(C)CC[C@]314 [Hydrocodone, reference compound]

>  <concentration at 0.1 h>
60.3 ng/mL

$$$$

###

Experiment: Crossover pharmacokinetics in dogs, oral vs 30-min intravenous infusion, LC-MS/MS
Assay type: in vivo, male beagle dogs
Conditions: male, beagle, dog, plasma, iv, 1 mg/kg, male beagle dog; IV; 1 mg/kg d-amphetamine base; mean; read-out: t1/2 of L-lysine-d-amphetamine (converted)
Description: This was a non-randomized, two-treatment crossover study. All animals were maintained on their normal diet and were fasted overnight prior to each dose administration. L-lysine-d-amphetamine dose was based on the body weight measured on the morning of each dosing day. […] Microsoft Excel (Version 6, Microsoft Corp., Redmond, Wash.) was used for calculation of mean plasma concentration and graphing of the plasma concentration-time data. […] Half-life was calculated as In2/λz. […]

>  <compound>
CC(Cc1ccccc1)NC(=O)C(N)CCCCN [L-lysine-d-amphetamine]

>  <half-life / min>
52.8

$$$$

###

assay: Oral bioavailability of hydrocodone conjugates in rats, LC/MS/MS; details: male, Sprague-Dawley, rat, plasma, po, 1 mg/kg

>  <compound>
COc1ccc2c3c1O[C@H]1C(=O)CC[C@H]4[C@@H](C2)N(C)CC[C@]314 [Hydrocodone, reference compound]

>  <concentration at 0.5 h [ng/mL]>
14.3

$$$$

###

Recorded Percent Cmax for the following compounds
test: Oral pharmacokinetics in rats, plasma d-amphetamine by ELISA; conditions: Oral, relative to amphetamine (first value where two are given)

>  <compound>
CC(Cc1ccccc1)NC(=O)C(N)CCC(=O)O (stereo not drawn)

>  <readout_units>
%

>  <Percent Cmax>
95

$$$$
>  <compound>
CC(Cc1ccccc1)NC(=O)C(N)CO (stereo not drawn)

>  <readout_units>
%

>  <Percent Cmax>
62

$$$$
>  <compound>
CC(Cc1ccccc1)NC(=O)C(N)Cc1cnc[nH]1 (stereo not drawn)

>  <readout_units>
%

>  <Percent Cmax>
21

$$$$

###

assay: Oral bioavailability of hydrocodone conjugates in rats, LC/MS/MS; settings: male, Sprague-Dawley, rat, plasma, po, 1 mg/kg
quantity_name: Cmax (ng/mL)

>  <molecule>
COc1ccc2c3c1O[C@H]1C(=O)CC[C@H]4[C@@H](C2)N(C)CC[C@]314 [Hydrocodone, reference compound]

>  <quantity_name>
Cmax

>  <test_result>
114

$$$$

###

Assay: Crossover pharmacokinetics in dogs, oral vs 30-min intravenous infusion, LC-MS/MS
Type: in vivo, male beagle dogs
Conditions: dog, plasma; male beagle dogs 1-3 and median; oral; 2 mg/kg (free form); read-out: Tmax of L-lysine-d-amphetamine
Description: This was a non-randomized, two-treatment crossover study. All animals were maintained on their normal diet and were fasted overnight prior to each dose administration. L-lysine-d-amphetamine dose was based on the body weight measured on the morning of each dosing day. […] Microsoft Excel (Version 6, Microsoft Corp., Redmond, Wash.) was used for calculation of mean plasma concentration and graphing of the plasma concentration-time data. […] Half-life was calculated as In2/λz. […]

>  <compound>
CC(Cc1ccccc1)NC(=O)C(N)CCCCN (stereo not shown)

>  <readout_units>
min

>  <Tmax>
30

$$$$
